# koff annotations
Target: T1, cynomolgus soluble urokinase plasminogen activator receptor (cynomolgus suPAR) (cynomolgus, UniProt Q9GK78 23-303, limits assumed)
T1 construct: also called cynomolgus uPAR; cynoPLAUR-His
T1 sequence (Q9GK78 23-303 limits assumed): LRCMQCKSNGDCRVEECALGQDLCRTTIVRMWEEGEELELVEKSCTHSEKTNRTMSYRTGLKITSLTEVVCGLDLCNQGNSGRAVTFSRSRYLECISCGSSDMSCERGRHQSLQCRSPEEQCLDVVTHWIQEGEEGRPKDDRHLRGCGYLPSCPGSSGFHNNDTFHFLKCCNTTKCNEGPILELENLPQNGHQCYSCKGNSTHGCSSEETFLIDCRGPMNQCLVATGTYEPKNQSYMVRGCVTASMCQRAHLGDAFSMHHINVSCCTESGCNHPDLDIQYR
Assay: BLI (Octet) off-rate screen of scFv
Write the numeric value and append its unit.

stdin: I have this binder here, suPAR_DB01_F04 (scFv, V domains shown, Screened as scFv) VH: QVQLVQSGAEVKKPGASVKVSCKASGYTFTDYYMHWVRQAPGQGLEWMGWIDHSNGNTIYAQKFQGRVTMTRDTSTSTVYMELSSLRSEDTAVYYCARGYDVDWFVYWGQGTLVTVSS VL: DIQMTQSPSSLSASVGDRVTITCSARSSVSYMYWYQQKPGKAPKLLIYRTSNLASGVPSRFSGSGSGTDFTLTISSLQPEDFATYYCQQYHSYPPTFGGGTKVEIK , and I need its recorded koff.
stdout: 4.59e-05 s⁻¹

stdin: What about suPAR_DB01_F11 (scFv, V domains shown, Screened as scFv) VH: QVQLVQSGAEVKKPGASVKVSCKASGYTFTSYYMHWVRQAPGQGLEWMGWIDHEGGNTSYAQKFQGRVTMTRDTSTSTVYMELSSLRSEDTAVYYCARGYDVDWFVYWGQGTLVTVSS VL: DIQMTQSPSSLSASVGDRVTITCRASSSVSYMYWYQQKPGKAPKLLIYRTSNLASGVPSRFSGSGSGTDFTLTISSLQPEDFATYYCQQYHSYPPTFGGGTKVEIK ?
stdout: 9.02e-05 s⁻¹

stdin: What about suPAR_DB02_A05 (scFv, V domains shown, Screened as scFv) VH: QVQLVQSGAEVKKPGASVKVSCKASGDTFTSYYMHWVRQAPGQGLEWMGWIDPENGNTIYAQKFQGRVTMTRDTSTSTVYMELSSLRSEDTAVYYCARGYDVDWFVYWGQGTLVTVSS VL: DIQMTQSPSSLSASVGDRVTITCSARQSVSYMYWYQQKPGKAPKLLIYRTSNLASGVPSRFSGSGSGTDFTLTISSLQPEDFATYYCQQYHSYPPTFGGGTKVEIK ?
stdout: 0.000151 s⁻¹
